Where do these numbers come from? They come from ChEMBL document CHEMBL1201862.

# Tested on: SK-MEL-5
# assay.name: NCI tumour cell line growth inhibition, 48 h
Activity calls are given as the source filed them. Cut-off read from the data, not from the text of the source: active = GI50 up to about 1.1 µM and inactive = higher. Where a SMILES comes first, the peptide text is derived from it. [ ]: non-standard residue; d: D form. The star is where a group is joined. ξ: configuration not given here. Propanoyl(3-(4-MeO-Ph)) = COc1ccc(CCC(=O)*)cc1; Thr(3ξ) = CC(O)[C@H](N)C(=O)O; dNMeL = CN[C@H](CC(C)C)C(=O)O; OBn = c1ccc(CO*)cc1; ξLac = CC(O)C(=O)O
Classes used: active, inactive

INSERT INTO measurements (compound, classification) VALUES
  ('COc1ccc(CCC(=O)OC(C)[C@H](NC(=O)[C@@H](CC(C)C)N(C)C(=O)[C@@H]2CCCN2C(=O)C(C)O)C(=O)OCc2ccccc2)cc1 (stereo partly drawn) (H-[ξLac]P[dNMeL][Thr(3ξ)](Propanoyl(3-(4-MeO-Ph)))-OBn)', 'inactive'),
  ('COc1cc(/C=C2\N=C(c3ccccc3)N(c3nc4ccc(Sc5ccccc5)cc4[nH]3)C2=O)ccc1O', 'inactive'),
  ('Cc1c(-c2ccccc2)c(C#N)c2nnn(-c3cccc(Cl)c3)c(=O)n12', 'inactive'),
  ('Cc1ccccc1NC(=O)C(=O)CC(=O)C1CCOC1=O (stereo not drawn)', 'inactive'),
  ('CC1C(=O)CC[C@@]2(C)C(=O)CCCC12O (stereo partly drawn)', 'inactive'),
  ('CN(C)CCNC(=O)c1cccc2[nH]c(-c3cccnc3)nc12', 'inactive'),
  ('Cc1ccc(-c2nnc(SCC(=O)O)[nH]2)cc1', 'inactive'),
  ('NC1(CCCCCCCCCCC(=O)O)CNCCNCCNCCNC1', 'inactive'),
  ('COc1ccc(C(Cl)=C(c2ccc(OCCN(C)C)cc2)c2ccc(OCCN(C)C)cc2)cc1', 'inactive'),
  ('CCN(CC)C(=S)SC1CCOP(=O)(N(CCCl)CCCl)N1C (stereo not drawn)', 'inactive'),
  ('Nc1c(C(=O)N/N=C/c2ccccc2)sc(=S)n1-c1ccccc1', 'inactive'),
  ('NC(=O)/N=C(\N)NC(=O)c1ccccc1', 'inactive'),
  ('COC(=O)[C@@H]1C=C[C@@H](C#N)n2c(=O)n(-c3ccccc3)c(=O)n21', 'inactive'),
  ('CC(C)/C(Cl)=N/OC(=O)Nc1ccc(F)c(Cl)c1', 'inactive'),
  ('O=C1C=CC2(CCCCCCC2=O)CC1 (stereo not drawn)', 'inactive'),
  ('CN(C)CC1COC2Cc3ccccc3C1O2 (stereo not drawn)', 'inactive'),
  ('C=C(C)C1Cc2c(c3ccccc3n(C)c2=O)O1 (stereo not drawn)', 'inactive'),
  ('NC1CC(=O)c2c(Br)csc21 (stereo not drawn)', 'inactive'),
  ('c1cnc2c(c1)-n1cccc1C1(CCOCC1)NN2', 'inactive'),
  ('C=C1C[C@H](O)[C@H](Br)C(C)(C)C12CCC(C)(Cl)C(Br)C2 (stereo partly drawn)', 'inactive'),
  ('O=C(O)CCNS(=O)(=O)c1ccc(NC(=O)c2ccccc2)cc1', 'inactive'),
  ('C/C1=C\[C@@H](O)C(=O)/C=C/C=C\c2csc(n2)[C@@H](C)NC(=O)C[C@@]2(CC1)[S+]([O-])SC(=O)[C@]2(C)O (stereo partly drawn) [LEINAMYCIN]', 'active'),
  ('O=C(NC(C(F)(F)F)(C(F)(F)F)P(=O)(Cc1ccccc1)Cc1ccccc1)C(C(F)(F)F)C(F)(F)F', 'inactive');
